B1: HDV Ribozyme (parent)
chain: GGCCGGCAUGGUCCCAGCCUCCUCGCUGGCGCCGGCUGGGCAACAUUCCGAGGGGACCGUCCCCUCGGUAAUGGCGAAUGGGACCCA

- Variants of: B1
- assay.overview: self-cleavage, relative activity (ratio to wild type); higher = more cleavage; co-transcriptional
measured.metric: self-cleavage
I only need the number, thanks.

Here's what some known entries look like.
>>> endpoint_result("G39U A87U")
0.683
>>> endpoint_result("G17A C48U")
0.785
>>> endpoint_result("C21A G39U")
0.945

Here is another variant to look at.
Ask | Recorded self-cleavage for C22A U69C , please?
Reply | 0.393
